Tested on: K4 kissing-loop RNA reporter;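 note: bound reporter read as fluorescence of individual clusters on recovered sequencing chips by microscopy, with normalized cluster intensities fitted with a binding model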
ASSAY_EXPLANATION: apparent KD of K4 kissing-loop reporter; higher = weaker reporter binding
RECORDED_CONDITIONS: Eterna round: R107; input ligand: none

SEQUENCE_ENTRY: UGAUACCAGACUGAUACCAGCCAGUGAUGUUGGCAAUAACCAAGGCGAGUCAAAGACUCGGGCCCUUGGCAGCAGUCUGGUAUCU [TheoBX 6 #SwitchBubble #StaticStem]
apparent KD of K4 kissing-loop reporter [µM]: 0.133
//
SEQUENCE_ENTRY: AGGCGGCAUAAUUGACUGAAAAGAAAUUAACGAGGACCGGUACGGCCGCCACUCGAACACCAGUGAUGUUGGUAUGGGAUAAUUU [Exclusion Tryptophan A GF 18]
apparent KD of K4 kissing-loop reporter [µM]: 0.0529
//
SEQUENCE_ENTRY: GAAUCAUGUAGAAGGAGCGUUAGAAGUUAUAGGGAUGAGUGAUGUUUGUGUUAGUAAAUCUGACAGGUAGGUCGCUACAGAAGGA [KL-SSArg B21 #analogue]
apparent KD of K4 kissing-loop reporter [µM]: 0.607

---

System: MS2 coat protein
ASSAY_EXPLANATION: apparent KD of MS2 coat protein; designed switch direction (-1 OFF switch, 1 ON switch): -1; higher = weaker reporter binding
RECORDED_CONDITIONS: input ligand: FMN 200 uM
# binarize apparent KD of MS2 coat protein: threshold 70 nM inclusive, high side yes (1), low side no (0)

SEQUENCE_ENTRY: CCUCAGUCACAGGAUAUGCUCAUCUAAUGAUGAGCAGAAGGGUGAACAUGAGGAUCACCCAUGUUUACCAGGGU [Omei Ex6 E5] (Eterna round: R97, puzzle: Exclusion 6)
CLASS_ASSIGNMENT: no (0)

SEQUENCE_ENTRY: ACGAUGACCGAAAAGUGUCAACUGACAUGAGGAUCACCCAUGUAGGAUAUGGCUACGAAAAGUAGUCAGAAGGACAAGUCAUCA [Omei Exc(NG) 3 Av5] (Eterna round: R96, puzzle: Exclusion NG 3)
CLASS_ASSIGNMENT: no (0)

SEQUENCE_ENTRY: GAAAAGUAAGGAUAUGUCCACAGUGAGGAAACUCACUGUGGACAGAAGGUACAUGAGGAUCACCCAUGUUUCUC [ExDelusion 3 - Jieux - Exclusion 4] (Eterna round: R97, puzzle: Exclusion 4)
CLASS_ASSIGNMENT: yes (1)

SEQUENCE_ENTRY: UUCGUGCUGCUUUGCUGUACGAGUACAUGAGGAUCACCCAUGUAGGAUAUGGUACGCUUUGCGUGCUAGAAGGAUAUGUGUAGC [salish99_ExNG3_r04_505] (Eterna round: R96, puzzle: Exclusion NG 3)
CLASS_ASSIGNMENT: no (0)

---

Tested on: MS2 coat protein
ASSAY_EXPLANATION: apparent KD of MS2 coat protein; designed switch direction (-1 OFF switch, 1 ON switch): 1; higher = weaker reporter binding
RECORDED_CONDITIONS: Eterna round: R95; input ligand: none

SEQUENCE_ENTRY: AGUCCAGCGAAAGCUGGACAAAAGCAUGUACAUGAGGAUCACCCAUGUUCAUGUAUAAGCUUUUUGCUCGUUUUAAA [JL mod - D95 - 17] (puzzle: Sensor for hsa-mir-208a)
apparent KD of MS2 coat protein: 0.0159 µM
--
SEQUENCE_ENTRY: GGUCCAGCUUUUGCUGGUCCUUCGCUUGCACAUGAGGAUCACCCAUGUCGUGUACAUGCUUGGUGCCCGUCUUUUUU [Photon Torp-16] (puzzle: Sensor for hsa-mir-208a)
apparent KD of MS2 coat protein: 0.229 µM
--
SEQUENCE_ENTRY: UACAAUCUAUCUGAGGAUAUCAUGAAAAAAACAUGAGGAUCACCCAUGUGCAGGAAAACUGCAUAUGAGAAGGCAGAUAGAUUGA [salish99_SS2_r3_005] (puzzle: Same State 2)
apparent KD of MS2 coat protein: 0.721 µM
--
SEQUENCE_ENTRY: UCUUGGUUUUUGCUCGUUUUUUGUGUUGAACAUGAGGAUCACCCAUGUAUUGUACAAUCCAGUUUAAUAAUGGUCCG [JMF 49] (puzzle: Sensor for hsa-mir-208a)
apparent KD of MS2 coat protein: 0.13 µM
--
SEQUENCE_ENTRY: CGGGUACAUGAGGAUCACCCAUGUGGGAGGGAUGCAGGAUAUGUGGGAAAAGGGUAUGAAACAGAAGGGCAAGGAG [JR_SS!_Sub013] (puzzle: Same State 1)
apparent KD of MS2 coat protein: 0.0351 µM
--
SEQUENCE_ENTRY: UGUUAACAUGAGGAUCACCCAUGUCAAAUGAAUCGAGGAUAUGGAAAGUAAUAAGAUGAACUAGAAGGUGAAGUUG [Altered State 1-19 - Jieux - Same State 1] (puzzle: Same State 1)
apparent KD of MS2 coat protein: 0.0573 µM
--
SEQUENCE_ENTRY: CGUGGGUGGCUGGAGGAUAUUCGAGUGGUAACAUGAGGAUCACCCAUGUGUCGCGCGGUACACGAGGAGAAGGCUGGCGGCCGGC (puzzle: Same State 2)
apparent KD of MS2 coat protein: 0.256 µM
--
SEQUENCE_ENTRY: AAGUAGGAGUUACAGGAUAUAUGGAGGAGGACAUGAGGAUCACCCAUGUGAGAGAUGAGAGGAGGAUAGAAGGGUAAGGGAGUAA [JR_SS2_Sub027] (puzzle: Same State 2)
apparent KD of MS2 coat protein: 0.032 µM
--
SEQUENCE_ENTRY: CGUCCGGCCUGUGCUGGCCGGUUGCAUGUACAUGAGGAUCACCCAUGUUCAUGUGCAGGCUUUUUGCUCGUCUUGUG [salish99_mir208a_013] (puzzle: Sensor for hsa-mir-208a)
apparent KD of MS2 coat protein: 0.0189 µM
--
SEQUENCE_ENTRY: CGGCGCUGUCGAGAGGAUAUGCGGUGAUGGACAUGAGGAUCACCCAUGUUAGCGAUAGCAUUACGGUAGAAGGCUCCACAGCUGU [Soteed Omei mod 12] (puzzle: Same State 2)
apparent KD of MS2 coat protein: 0.42 µM
